Biological target: ScNbp2
Assay: SPOT peptide array binding signal intensity (averaged, normalized) (arbitrary units (background-subtracted, floor 0; scale differs between SH3 domains)); higher = stronger binding of the SH3 domain to the peptide
recorded endpoint: SPOT peptide array binding signal intensity

Use the examples below as a reference point.
binder	endpoint value
NRARYLPQNPDIIAG	≤ 0
TPTSGPPLLPPRNTM	≤ 0
GQYRRTIVIPRRFFT	346

IN: Specify measured SPOT peptide array binding signal intensity for `SSSSTPPTLPPRRIE` .
OUT: ≤ 0

IN: Specify measured SPOT peptide array binding signal intensity for `FPPKRKPLLRPQRSD` .
OUT: 761

IN: Specify measured SPOT peptide array binding signal intensity for `HPRFVSPRIPSRIVK` .
OUT: 510

IN: Specify measured SPOT peptide array binding signal intensity for `ISRRRLPVIMHRLKM` .
OUT: 485

src = the supplement of paper PMC4466140
